Catalogue of compounds with associated pIC50
- Tested on: Influenza A virus
- RUN DESCRIPTION: Antiviral activity against influenza A (A/Osaka/180/2009 (H1N1)) virus harboring neuraminidase H275Y mutant after 30 mins by NA-star substrate based chemiluminescent assay
- Format: functional, organism-based
pIC50: −log10 of the molar value.
PARAMETER MEASURED: pIC50

>  <COMPOUND>
CO[C@@H]([C@@H]1OC(C(=O)O)=C[C@H](NC(=N)N)[C@H]1NC(C)=O)[C@H](O)CO

>  <PARAMETER MEASURED>
pIC50

>  <VALUE REPORTED>
9.32

$$$$
>  <COMPOUND>
CC(=O)N[C@H]1[C@H]([C@H](O)[C@H](O)CO)OC(C(=O)O)=C[C@@H]1NC(=N)N

>  <PARAMETER MEASURED>
pIC50

>  <VALUE REPORTED>
9.46

$$$$
>  <COMPOUND>
C/C=C\[C@@H]1C[C@H](C(=O)O)N[C@H]1[C@@H](NC(C)=O)[C@](C)(CCC)OC

>  <PARAMETER MEASURED>
pIC50

>  <VALUE REPORTED>
9.04

$$$$
>  <COMPOUND>
CCC(CC)[C@H](NC(C)=O)[C@@H]1[C@H](O)[C@@H](C(=O)O)C[C@H]1NC(=N)N [PERAMIVIR ANHYDROUS]

>  <PARAMETER MEASURED>
pIC50

>  <VALUE REPORTED>
7.88

$$$$

---

- Tested on: Influenza A virus
- RUN DESCRIPTION: Antiviral activity against influenza A (A/Montana/02/2009 (H1N1)) virus harboring neuraminidase H275Y mutant after 30 mins by MUNANA substrate based fluorometric assay
- Format: functional, organism-based
pIC50: −log10 of the molar value.

>  <COMPOUND>
CCC(CC)[C@H](NC(C)=O)[C@@H]1[C@H](O)[C@@H](C(=O)O)C[C@H]1NC(=N)N [PERAMIVIR ANHYDROUS]

>  <pIC50>
6.71

$$$$
>  <COMPOUND>
C/C=C\[C@@H]1C[C@H](C(=O)O)N[C@H]1[C@@H](NC(C)=O)[C@](C)(CCC)OC

>  <pIC50>
8.59

$$$$
>  <COMPOUND>
CO[C@@H]([C@@H]1OC(C(=O)O)=C[C@H](NC(=N)N)[C@H]1NC(C)=O)[C@H](O)CO

>  <pIC50>
8.98

$$$$
>  <COMPOUND>
CC(=O)N[C@H]1[C@H]([C@H](O)[C@H](O)CO)OC(C(=O)O)=C[C@@H]1NC(=N)N

>  <pIC50>
8.94

$$$$
